Values of pIC50 reported for Tdp1 (Homo sapiens) appear below.
Numbers only, as −log10 of the molar value.

[[record]]
molecule = "C[C@@H](OC(=O)c1ccccc1)[C@H]1O[C@@H](n2ccc(N)nc2=O)[C@H](OC(=O)c2ccccc2)[C@@H]1OC(=O)c1ccccc1"
measured_target = "Tdp1 (Homo sapiens)"
value = 5.24

[[record]]
molecule = "CC(=O)O[C@H]1O[C@@H](COC(=O)c2ccccc2)[C@H](OC(=O)c2ccccc2)[C@@H]1OC(=O)c1ccccc1"
measured_target = "Tdp1 (Homo sapiens)"
value = 5.28


Now consider the entry below.
Look up pIC50 for this compound: C[C@H](OC(=O)c1ccccc1)[C@H]1O[C@@H](n2cnc3c(NC(=O)c4ccccc4)ncnc32)[C@H](OC(=O)c2ccccc2)[C@@H]1OC(=O)c1ccccc1 5.34

---

Assign ER (eudismic ratio) to each entry below.
# measured target: Tdp1 (Homo sapiens)
# run description: Real-time detection of Tdp1 activity (oligonucleotide biosensor, FAM/BHQ1)
# Type: biochemical
# assay setup: IC50 (Eutomer)/IC50 (Distomer), per stereoisomer pair

Recorded ER (eudismic ratio), per entry:
[[record]]
molecule = "CO[C@H]1O[C@H](COC(=O)c2ccccc2)[C@@H](OC(=O)c2ccccc2)[C@@H]1OC(=O)c1ccccc1"
value = 0.343

[[record]]
molecule = "CO[C@@H]1O[C@@H](COC(=O)c2ccccc2)[C@H](OC(=O)c2ccccc2)[C@H]1OC(=O)c1ccccc1"
value = 0.343

[[record]]
molecule = "C[C@@H](OC(=O)c1ccccc1)[C@H]1O[C@@H](n2cnc3c(NC(=O)c4ccccc4)ncnc32)[C@H](OC(=O)c2ccccc2)[C@@H]1OC(=O)c1ccccc1"
value = 0.956


Need ER (eudismic ratio) for each of these molecules.
1. CC(=O)O[C@H]1O[C@@H](COC(=O)c2ccccc2)[C@H](OC(=O)c2ccccc2)[C@@H]1OC(=O)c1ccccc1
2. C[C@H](OC(=O)c1ccccc1)[C@H]1O[C@@H](n2c(=O)cc[nH]c2=O)[C@H](OC(=O)c2ccccc2)[C@@H]1OC(=O)c1ccccc1

[0.808, 0.871]

---

# measured target: Tdp1 (Homo sapiens, UniProt Q9NUW8)
# Sequence (Q9NUW8 whole entry): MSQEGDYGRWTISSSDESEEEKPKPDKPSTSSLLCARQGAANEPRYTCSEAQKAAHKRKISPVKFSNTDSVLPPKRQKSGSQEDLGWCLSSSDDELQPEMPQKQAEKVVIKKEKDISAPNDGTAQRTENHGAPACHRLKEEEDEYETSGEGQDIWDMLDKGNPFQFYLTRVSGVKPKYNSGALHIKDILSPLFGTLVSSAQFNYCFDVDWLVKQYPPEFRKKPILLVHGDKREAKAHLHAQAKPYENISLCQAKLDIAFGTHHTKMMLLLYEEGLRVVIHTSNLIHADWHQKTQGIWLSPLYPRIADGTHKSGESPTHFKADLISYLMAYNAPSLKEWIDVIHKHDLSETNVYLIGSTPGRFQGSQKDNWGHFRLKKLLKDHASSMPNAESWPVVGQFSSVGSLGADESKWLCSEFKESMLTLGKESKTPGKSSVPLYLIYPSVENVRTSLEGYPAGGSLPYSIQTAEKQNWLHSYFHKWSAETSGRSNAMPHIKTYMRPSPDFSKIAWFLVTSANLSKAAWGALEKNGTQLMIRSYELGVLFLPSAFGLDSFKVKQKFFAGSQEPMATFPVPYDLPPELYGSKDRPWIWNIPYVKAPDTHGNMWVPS
# run description: Real-time detection of Tdp1 activity (oligonucleotide biosensor, FAM/BHQ1)
# Type: biochemical
# Design: key: The stereoisomer with the greater inhibitory activity is termed the eutomer (Eut); that with the lower activity, the distomer (Dis)
# assay setup: eutomer or distomer within the stereoisomer pair
assay readout: Eut/Dis

Recorded Eut/Dis, per entry:
[[record]]
molecule = "C[C@H](OC(=O)c1ccccc1)[C@H]1O[C@@H](n2ccc(N)nc2=O)[C@H](OC(=O)c2ccccc2)[C@@H]1OC(=O)c1ccccc1"
assay_readout = "Eut/Dis"
value = "Eut"

[[record]]
molecule = "Cc1cn([C@H]2O[C@@H](COC(=O)c3ccccc3)[C@H](OC(=O)c3ccccc3)[C@@H]2OC(=O)c2ccccc2)c(=O)[nH]c1=O"
assay_readout = "Eut/Dis"
value = "Dis"

[[record]]
molecule = "CO[C@H]1O[C@H](COC(=O)c2ccccc2)[C@@H](OC(=O)c2ccccc2)[C@@H]1OC(=O)c1ccccc1"
assay_readout = "Eut/Dis"
value = "Eut"

[[record]]
molecule = "C[C@H](OC(=O)c1ccccc1)[C@H]1O[C@@H](n2c(=O)cc[nH]c2=O)[C@H](OC(=O)c2ccccc2)[C@@H]1OC(=O)c1ccccc1"
assay_readout = "Eut/Dis"
value = "Eut"

[[record]]
molecule = "C[C@H](OC(=O)c1ccccc1)[C@H]1O[C@@H](n2cnc3c(NC(=O)c4ccccc4)ncnc32)[C@H](OC(=O)c2ccccc2)[C@@H]1OC(=O)c1ccccc1"
assay_readout = "Eut/Dis"
value = "Dis"

[[record]]
molecule = "C[C@@H](OC(=O)c1ccccc1)[C@H]1O[C@@H](n2ccc(N)nc2=O)[C@H](OC(=O)c2ccccc2)[C@@H]1OC(=O)c1ccccc1"
assay_readout = "Eut/Dis"
value = "Dis"

[[record]]
molecule = "CC(=O)O[C@H]1O[C@@H](COC(=O)c2ccccc2)[C@H](OC(=O)c2ccccc2)[C@@H]1OC(=O)c1ccccc1"
assay_readout = "Eut/Dis"
value = "Dis"

[[record]]
molecule = "C[C@@H](OC(=O)c1ccccc1)[C@H]1O[C@@H](n2cnc3c(NC(=O)c4ccccc4)ncnc32)[C@H](OC(=O)c2ccccc2)[C@@H]1OC(=O)c1ccccc1"
assay_readout = "Eut/Dis"
value = "Eut"


Need Eut/Dis for each of these compounds.
1. O=C(OC[C@H]1O[C@@H](n2ccc(=O)[nH]c2=O)[C@H](OC(=O)c2ccccc2)[C@@H]1OC(=O)c1ccccc1)c1ccccc1
2. CC(=O)O[C@@H]1O[C@H](COC(=O)c2ccccc2)[C@@H](OC(=O)c2ccccc2)[C@H]1OC(=O)c1ccccc1
3. O=C(OC[C@@H]1O[C@H](n2ccc(=O)[nH]c2=O)[C@@H](OC(=O)c2ccccc2)[C@H]1OC(=O)c1ccccc1)c1ccccc1
4. Cc1cn([C@@H]2O[C@H](COC(=O)c3ccccc3)[C@@H](OC(=O)c3ccccc3)[C@H]2OC(=O)c2ccccc2)c(=O)[nH]c1=O
5. C[C@@H](OC(=O)c1ccccc1)[C@H]1O[C@@H](n2c(=O)cc[nH]c2=O)[C@H](OC(=O)c2ccccc2)[C@@H]1OC(=O)c1ccccc1
6. CO[C@@H]1O[C@@H](COC(=O)c2ccccc2)[C@H](OC(=O)c2ccccc2)[C@H]1OC(=O)c1ccccc1

1: Eut; 2: Eut; 3: Dis; 4: Eut; 5: Dis; 6: Dis

---

Assign EI (eudismic index) to each entry below.
# measured target: Tdp1 (Homo sapiens)
# run description: Real-time detection of Tdp1 activity (oligonucleotide biosensor, FAM/BHQ1)
# Format: biochemical
# assay setup: −logER, per stereoisomer pair
Answers are plain numbers.

Recorded EI (eudismic index), per entry:
[[record]]
compound = "C[C@H](OC(=O)c1ccccc1)[C@H]1O[C@@H](n2ccc(N)nc2=O)[C@H](OC(=O)c2ccccc2)[C@@H]1OC(=O)c1ccccc1 [Compound 6S]"
value = 0.048

[[record]]
compound = "Cc1cn([C@H]2O[C@@H](COC(=O)c3ccccc3)[C@H](OC(=O)c3ccccc3)[C@@H]2OC(=O)c2ccccc2)c(=O)[nH]c1=O [Compound 4L, 2′,3′,5′-tri-O-benzoyl-L-ribothymidine]"
value = 0.967

[[record]]
compound = "CC(=O)O[C@H]1O[C@@H](COC(=O)c2ccccc2)[C@H](OC(=O)c2ccccc2)[C@@H]1OC(=O)c1ccccc1 [Compound 2L]"
value = 0.09

[[record]]
compound = "CC(=O)O[C@@H]1O[C@H](COC(=O)c2ccccc2)[C@@H](OC(=O)c2ccccc2)[C@H]1OC(=O)c1ccccc1 [Compound 2D]"
value = 0.09

[[record]]
compound = "C[C@H](OC(=O)c1ccccc1)[C@H]1O[C@@H](n2cnc3c(NC(=O)c4ccccc4)ncnc32)[C@H](OC(=O)c2ccccc2)[C@@H]1OC(=O)c1ccccc1 [Compound 7S]"
value = 0.0193

[[record]]
compound = "C[C@@H](OC(=O)c1ccccc1)[C@H]1O[C@@H](n2c(=O)cc[nH]c2=O)[C@H](OC(=O)c2ccccc2)[C@@H]1OC(=O)c1ccccc1 [Compound 5R]"
value = 0.06


Need EI (eudismic index) for each of these compounds.
1. C[C@@H](OC(=O)c1ccccc1)[C@H]1O[C@@H](n2cnc3c(NC(=O)c4ccccc4)ncnc32)[C@H](OC(=O)c2ccccc2)[C@@H]1OC(=O)c1ccccc1 [Compound 7R]
2. O=C(OC[C@@H]1O[C@H](n2ccc(=O)[nH]c2=O)[C@@H](OC(=O)c2ccccc2)[C@H]1OC(=O)c1ccccc1)c1ccccc1 [Compound 3L, 2′,3′,5′-tri-O-benzoyl-L-uridine]
3. O=C(OC[C@H]1O[C@@H](n2ccc(=O)[nH]c2=O)[C@H](OC(=O)c2ccccc2)[C@@H]1OC(=O)c1ccccc1)c1ccccc1 [Compound 3D, 2′,3′,5′-tri-O-benzoyl-D-uridine]
4. CO[C@@H]1O[C@@H](COC(=O)c2ccccc2)[C@H](OC(=O)c2ccccc2)[C@H]1OC(=O)c1ccccc1 [Compound 1L]
5. C[C@@H](OC(=O)c1ccccc1)[C@H]1O[C@@H](n2ccc(N)nc2=O)[C@H](OC(=O)c2ccccc2)[C@@H]1OC(=O)c1ccccc1 [Compound 6R]
6. CO[C@H]1O[C@H](COC(=O)c2ccccc2)[C@@H](OC(=O)c2ccccc2)[C@@H]1OC(=O)c1ccccc1 [Compound 1D]
7. C[C@H](OC(=O)c1ccccc1)[C@H]1O[C@@H](n2c(=O)cc[nH]c2=O)[C@H](OC(=O)c2ccccc2)[C@@H]1OC(=O)c1ccccc1 [Compound 5S]

[0.0193, 0.128, 0.128, 0.465, 0.048, 0.465, 0.06]

Look up EI (eudismic index) for this compound: Cc1cn([C@@H]2O[C@H](COC(=O)c3ccccc3)[C@@H](OC(=O)c3ccccc3)[C@H]2OC(=O)c2ccccc2)c(=O)[nH]c1=O [Compound 4D] 0.967
